Hello, the source for this data is ChEMBL document CHEMBL1955829, in case you need it.

Test system: MCF7
procedure_summary: Growth inhibition of human MCF7 cells after 48 hrs by sulforhodamine B assay
Type: functional
condition_set: MCF7, 48 h
reported_endpoint: GI50

Exercise: Recorded GI50 of "COc1cc([C@@H]2c3cc4c(cc3[C@@H](NC(=O)c3ccc(NS(=O)(=O)c5ccc(-c6ccccc6)cc5)cc3)[C@H]3COC(=O)[C@H]23)OCO4)cc(OC)c1OC" , please.
Key: 2.3 µM

Exercise: Recorded GI50 of "COc1ccc(S(=O)(=O)Nc2ccc(C(=O)N[C@@H]3c4cc5c(cc4[C@@H](c4cc(OC)c(OC)c(OC)c4)[C@H]4C(=O)OC[C@@H]43)OCO5)cc2)cc1" , please.
Key: 0.16 µM

Exercise: Recorded GI50 of "COc1cc([C@@H]2c3cc4c(cc3[C@@H](NS(=O)(=O)c3ccc(Oc5ccccc5)cc3)[C@H]3COC(=O)[C@H]23)OCO4)cc(OC)c1OC" , please.
Key: 2.21 µM
